Parameter: The percentage of CD40^hi DC following treatment. Scope: all listed entries.
Test system: Human dendritic cells
test: CD40 levels at the DC cell surface (flow cytometry)
Assay type: cell-based
particulars: DC from individual C; 100 μg, 48 hours
Marks after values point to notes of the source that are not given here.

Given the substance 5′ GTGTGT3′ [N1B] , what is its reported The percentage of CD40^hi DC following treatment?
18%

Given the substance 5′GGGAGG3′ [N6A] (unmodified DNA) , what is its reported The percentage of CD40^hi DC following treatment?
15%

Given the substance 5′GGGAGG3′ [N6B] (DNA, backbone not given here; further chemistry not fully specified) , what is its reported The percentage of CD40^hi DC following treatment?
15%

Given the substance 5′GGGTGG3′ [N3A] , what is its reported The percentage of CD40^hi DC following treatment?
20%

Given the substance 5′GGGCGG3′ [N7A] (DNA, all phosphodiester, methylation of C not given here) , what is its reported The percentage of CD40^hi DC following treatment?
23%

Given the substance 5′GGGGGG3′ [N5A] (unmodified DNA) , what is its reported The percentage of CD40^hi DC following treatment?
30** %

----------
Tested on: female BALB/C mice
test: Vaccination with hepatitis surface antigen (intramuscular), anti-HbsAg end-point dilution ELISA
Type: in vivo
particulars: HbsAg 1 μg + Alum 10 μg + polynucleotide 100 μg i.m. day 0 and 21, plasma day 31
measured-quantity: End-point titers IgG2a, mean ± SD
Answer field: number only, no words.

5′GGGAGG3′ [N6A] (unmodified DNA) :: 291
5′GGGTGG3′ [N3B] :: 204
5′GGGAGG3′ [N6B] (DNA, backbone not given here; further chemistry not fully specified) :: 205

Query for female BALB/C mice: what End-point titers IgG2a, mean ± SD does the record show for 5′GGGTGG3′ [N3A] ?
860

----------
Test system: female BALB/C mice
test: Vaccination with hepatitis surface antigen (intramuscular), anti-HbsAg end-point dilution ELISA
Assay type: in vivo
particulars: HbsAg 1 μg + Alum 10 μg + polynucleotide 10 μg i.m. day 0 and 21, plasma day 31
Parameter: End-point titers IgG2a, mean ± SD. Scope: all listed entries.
Answer field: number only, no words.

Field: example entries. Status: answers known.
5′GGGTGG3′ [N3A] :: 272
5′GGGAGG3′ [N6A] (unmodified DNA) :: 250
5′GGGTGG3′ [N3B] :: 120

Let us move to another entry and its End-point titers IgG2a, mean ± SD.
Query for female BALB/C mice: what End-point titers IgG2a, mean ± SD does the record show for 5′GGGAGG3′ [N6B] (DNA, backbone not given here; further chemistry not fully specified) ?
187

----------
Test system: Human dendritic cells
test: CD86 levels at the DC cell surface (flow cytometry)
Type: cell-based
particulars: DC from individual C; 100 μg, 48 hours
Protocol: Human dendritic cells were obtained from Clonetics (San Diego, Calif., USA) and were cultured in the medium recommended by Clonetics. DC were obtained from three different individuals (see Table 1). Major histocompatability typing was performed on each of these individuals and several of the HLA (human leukocyte antigens) types are shown. […]
Marks after values point to notes of the source that are not given here.
measured-quantity: The percentage of CD86^hi DC following treatment

5′GGGTGG3′ [N3B] :: 39** %

Given the substance 5′GTGTGT3′ [N1A] , what is its reported The percentage of CD86^hi DC following treatment?
14%

Given the substance 5′GGGGGG3′ [N5B] , what is its reported The percentage of CD86^hi DC following treatment?
31** %

Given the substance 5′GGGTGG3′ [N3A] , what is its reported The percentage of CD86^hi DC following treatment?
37** %
